- Tested on: NCI-H460 lung
- Experiment notes: NCI-60 one-dose screen, 48 h
- Measurement context: 10 µM unless noted
The panel holds about 83,000 compounds, 20% with a hit somewhere; the sample as a whole holds those more often. Active and inactive are the calls of the source. Rule for the calls: active = growth percent below 10; inactive = the rest.
Hello, when you answer, please use one of the following outcomes: yes (1) (active), no (0) (inactive)

The following molecules have reported results that may help.
Molecule | Tested on | Group label
COC(=O)c1c2c(c(C)[n+]([O-])c1C)C(=O)C=C(NCc1ccc(F)c(F)c1)C2=O | NCI-H460 lung | yes (1)
COc1cccc(C(=O)NC(c2ccc(C)cc2)c2cc(Cl)c3cccnc3c2O)c1 (stereo not given) | NCI-H460 lung | yes (1)
CN1C(=O)N(C)C2(c3ccccc3)n3c(s/c(=C\c4ccccc4)c3=O)=NNC12c1ccccc1 (stereo not given) | NCI-H460 lung | no (0)
O=C(Nc1ccc(Br)cc1F)c1cc(F)ccc1O | NCI-H460 lung | yes (1)

-- ask Just curious, what result did "CCOC(=O)c1c2c(n3cccc(Cl)c13)C(=O)c1ncccc1C2=O" get here?
-- reply no (0)
